Each entry below carries its recorded GI50.
# System: HOP-62
# assay_procedure: Growth inhibition of human HOP62 cells incubated for 48 hrs by sulforhodamine B assay
# Format: functional
# recorded_conditions: HOP-62, 48 h
Record the value in µM, omitting the unit from your answer.

Recorded GI50 for C=C1C(=O)O[C@@H]2[C@H]3O[C@]3(C)CC/C=C(/COC(=O)c3cn(C)c4ccccc34)CC[C@@H]12 with HOP-62, please?
1.81

====

# System: K562
# assay_procedure: Growth inhibition of human K562 cells incubated for 48 hrs by sulforhodamine B assay
# Format: functional
# recorded_conditions: K562, 48 h
Each entry below carries its recorded GI50.
Record the value in nM, omitting the unit from your answer.

INSERT INTO measurements (compound_structure, units_text, recorded_measurement) VALUES
  ('C=C1C(=O)O[C@@H]2[C@H]3O[C@]3(C)CC/C=C(/COC(=O)CCCc3c[nH]c4ccccc34)CC[C@@H]12', 'nM', 2600),
  ('C=C1C(=O)O[C@@H]2[C@H]3O[C@]3(C)CC/C=C(/COC(=O)c3c[nH]c4ccccc34)CC[C@@H]12', 'nM', 270),
  ('C=C1C(=O)O[C@@H]2[C@H]3O[C@]3(C)CC/C=C(/COC(=O)c3cc4cc(Cl)ccc4[nH]3)CC[C@@H]12', 'nM', 1140);

Reported GI50, molecule C=C1C(=O)O[C@@H]2[C@H]3O[C@]3(C)CC/C=C(/COC(=O)c3cc4ccccc4[nH]3)CC[C@@H]12 : ____
320

Reported GI50, molecule C=C1C(=O)O[C@@H]2[C@H]3O[C@]3(C)CC/C=C(/COC(=O)c3cc4ccccc4o3)CC[C@@H]12 : ____
1150
